ASSAY NOTES: Plasma levels of 23CPPA following oral administration in rats
Assay type: in vivo, rat
CONDITION SET: plasma, po; rat, gavage 75 mg/kg body wt. sodium salt; read-out: AUC0-24
REPORTED ENDPOINT: AUC(0-t) (ng·h/mL)
Give just the number in ng·h/mL; leave the unit off.

IN: For O=C(O)Cc1ccccc1Nc1cccc(Cl)c1 [23CPPA] , what is its reported AUC(0-t)?
OUT: 94000

###

ASSAY NOTES: Brain and plasma levels of 23CPPA following oral administration in rats (HPLC/MS/MS)
Type: in vivo
CONDITION SET: blood, rat, gavage 60 mg/kg sodium salt, 6 hours after dose, read-out: Blood concentration
REPORTED ENDPOINT: concentration at 6 h

IN: For O=C(O)Cc1ccccc1Nc1cccc(Cl)c1 [23CPPA] , what is its reported concentration at 6 h?
OUT: 22 µM
